Each record here notes measured pest or weed control at 150 ppm.
System: Uromyces phaseoli
protocol.notes: whole plant or invertebrate
experimental.context: foliar, 24 h, read-out: Percent Disease Control, curative, bean rust
Your answer should be a plain number; it is taken to be in %.

Examples from the recorded data:
response.value for O=c1c(Cl)nsnc1Oc1ccc(Br)cc1 [Compound 15] (field: pest or weed control at 150 ppm) = 90

response.value for CC(=O)Nc1ccc(Oc2nsnc(Cl)c2=O)cc1 [Compound 8] (field: pest or weed control at 150 ppm) = 0

response.value for Cc1cc(Cl)c(Oc2nsnc(Cl)c2=O)cc1C [Compound 58] (field: pest or weed control at 150 ppm) = 0

Continuing:
response.value for O=c1c(Cl)nsnc1Oc1cc(Cl)cc(Cl)c1 [Compound 20] (field: pest or weed control at 150 ppm) = 0

response.value for Cc1cc(C)cc(Oc2nsnc(Cl)c2=O)c1 [Compound 25] (field: pest or weed control at 150 ppm) = 0

response.value for Cc1ccc(Oc2nsnc(Cl)c2=O)c(Br)c1 [Compound 57] (field: pest or weed control at 150 ppm) = 0
